System: Delta-type opioid receptor
protocolSummary: GPI/MVD ratio is based on Ke (antilog of pA2 value of antagonistic activity of compound for delta opioid receptor) and IC50 values
Assay type: functional
endpoint: Ratio

Log: Delta-type opioid receptor, compound `CN[C@@H](Cc1c(C)cc(O)cc1C)C(=O)N1Cc2ccccc2C[C@H]1C(=O)N[C@@H](C)C(=O)O` , Ratio = > 7100

Noted Ratio for CN[C@H](Cc1c(C)cc(O)cc1C)C(=O)N1Cc2ccccc2CC1C(=O)O (stereo partly specified) , tested on Delta-type opioid receptor: > 71

Known value: Delta-type opioid receptor Ratio of the compound CN[C@@H](Cc1c(C)cc(O)cc1C)C(=O)N1Cc2ccccc2CC1C(N)=O (stereo partly specified) equals > 4550

The compound `Cc1cc(O)cc(C)c1C[C@@H](N)C(=O)N1Cc2ccccc2C[C@H]1C(=O)N[C@@H](C)C(=O)O` on Delta-type opioid receptor: Ratio was > 88

Summary line: `Cc1cc(O)cc(C)c1C[C@@H](C(=O)N1Cc2ccccc2C[C@H]1C(=O)N[C@@H](C)C(=O)O)N(C)C` , Delta-type opioid receptor, reported Ratio = 7180

Tested system Delta-type opioid receptor; Ratio recorded for `Oc1ccc2c3c1O[C@H]1c4[nH]c5ccccc5c4C[C@@]4(O)[C@@H](C2)N(CC2CC2)CC[C@]314` was 76

###

System: Delta-type opioid receptor
protocolSummary: GPI/MVD ratio is based on Ke (antilog of pA2 value of antagonistic activity of compound for delta opioid receptor) and IC50 values
Assay type: functional
endpoint: Ratio

// field: Ratio; key: CN[C@@H](Cc1c(C)cc(O)cc1C)C(=O)N1Cc2ccccc2CC1C(=O)O (stereo partly drawn) ; value = > 3570

Entry under test: Cc1cc(O)cc(C)c1C[C@H](N)C(=O)N1Cc2ccccc2C[C@H]1C(=O)NC(C)C(=O)O (stereo partly drawn) . Its Ratio was > 2500

For this molecule ( Cc1cc(O)cc(C)c1C[C@H](C(=O)N1Cc2ccccc2CC1C(=O)O)N(C)C (stereo partly drawn) ), measured Ratio is > 4200

###

For each entry below, report its pKi value.
testedSystem: Delta-type opioid receptor (Rattus norvegicus, UniProt P33533)
Sequence (P33533 whole entry): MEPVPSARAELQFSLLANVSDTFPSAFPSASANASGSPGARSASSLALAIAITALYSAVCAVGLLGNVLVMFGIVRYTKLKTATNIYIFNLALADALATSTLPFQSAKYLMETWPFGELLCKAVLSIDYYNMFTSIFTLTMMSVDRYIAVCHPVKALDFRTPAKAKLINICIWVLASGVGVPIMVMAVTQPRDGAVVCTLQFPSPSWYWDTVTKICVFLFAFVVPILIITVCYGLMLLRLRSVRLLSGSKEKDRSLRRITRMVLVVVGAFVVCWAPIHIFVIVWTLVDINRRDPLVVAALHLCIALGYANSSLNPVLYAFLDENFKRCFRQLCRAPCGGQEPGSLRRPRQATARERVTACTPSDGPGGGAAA
protocolSummary: Binding affinity for Opioid receptor delta 1 by displacement of [3H]- DPDPE
Where a SMILES comes first, the peptide text is derived from it. [ ]: non-standard residue; d: D form. ξ: configuration not given here. Dmt = Cc1cc(O)cc(C)c1C[C@H](N)C(=O)O; Tic = O=C(O)[C@@H]1Cc2ccccc2CN1; ξTic = O=C(O)C1Cc2ccccc2CN1
Scale: pKi equals -log10([C]), with [C] in mol/L.

Recorded result, `CN[C@@H](Cc1c(C)cc(O)cc1C)C(=O)N1Cc2ccccc2C[C@H]1C(=O)N[C@@H](C)C(=O)O` , pKi: 9.87

pKi in this record for Cc1cc(O)cc(C)c1C[C@H](N)C(=O)N1Cc2ccccc2CC1C(N)=O (some centres undefined) (H-[Dmt]-[ξTic]-NH2) : 8.91

Looking up Cc1cc(O)cc(C)c1C[C@@H](C(=O)N1Cc2ccccc2CC1C(=O)O)N(C)C (some centres undefined) , I see its pKi listed as 9.93

// field: pKi; key: N[C@@H](Cc1ccc(O)cc1)C(=O)N1Cc2ccccc2C[C@H]1C(=O)O (H-Tyr-[Tic]-OH) ; value = 6.72

Notebook: Cc1cc(O)cc(C)c1C[C@@H](C(=O)N1Cc2ccccc2CC1C(N)=O)N(C)C (some centres undefined) , pKi read as 9.51

The molecule identified as CN[C@@H](Cc1c(C)cc(O)cc1C)C(=O)N1Cc2ccccc2CC1C(=O)O (some centres undefined) registered its pKi at 9.69

Kindly note the recorded pKi for `Cc1cc(O)cc(C)c1C[C@@H](C(=O)N1Cc2ccccc2C[C@H]1C(=O)N[C@@H](C)C(=O)O)N(C)C` , which is 10.12

pKi in this record for Cc1cc(O)cc(C)c1CC(C)C(=O)N1Cc2ccccc2CC1C(=O)O (centres undefined) : 5.88

`Cc1cc(O)cc(C)c1C[C@@H](N)C(=O)N1Cc2ccccc2C[C@H]1C(=O)N[C@@H](C)C(=O)O` yielded pKi of 7.89

Recorded values, source ChEMBL document CHEMBL1130156.
